# test_system: GenK (Corynebacterium glutamicum, UniProt Q8NLB7)
# Construct: full-length, native gene in intact C. glutamicum RES167 cells; mutants expressed from pXMJ19 in RES167 delta-genK; untagged as far as told; 12 predicted transmembrane helices
# Sequence (Q8NLB7 whole entry): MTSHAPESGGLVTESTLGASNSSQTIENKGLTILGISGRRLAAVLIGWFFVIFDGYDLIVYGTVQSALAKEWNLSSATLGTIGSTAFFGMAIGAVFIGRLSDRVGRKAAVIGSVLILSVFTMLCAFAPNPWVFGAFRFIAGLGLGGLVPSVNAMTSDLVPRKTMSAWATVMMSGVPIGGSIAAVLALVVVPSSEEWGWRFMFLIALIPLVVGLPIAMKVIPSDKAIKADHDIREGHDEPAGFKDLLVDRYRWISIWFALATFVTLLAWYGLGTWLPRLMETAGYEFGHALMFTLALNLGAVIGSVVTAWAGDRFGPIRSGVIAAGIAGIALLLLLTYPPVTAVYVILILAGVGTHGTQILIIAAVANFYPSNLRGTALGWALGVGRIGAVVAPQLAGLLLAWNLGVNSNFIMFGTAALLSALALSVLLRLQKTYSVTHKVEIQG
# experimental_protocol: inhibition of […]-gentisate uptake in RES167 cells
# Format: cell-based
observable: inhibition at 800 µM

Example compounds with recorded inhibition at 800 µM:
compound	test_system	experimental_value
O=C(O)c1ccccc1 [benzoate]	GenK (Corynebacterium glutamicum, UniProt Q8NLB7)	40 to 60%
O=C(O)c1cccc(O)c1 [3-hydroxybenzoate]	GenK (Corynebacterium glutamicum, UniProt Q8NLB7)	94%
O=C(O)c1ccc(O)c(O)c1 [protocatechuate]	GenK (Corynebacterium glutamicum, UniProt Q8NLB7)	40 to 60%

Query compound follows.
Qu. Which measured inhibition at 800 µM value corresponds to Oc1ccccc1O ?
Ans. 40 to 60%
